System: B16-F10
Test: Cytotoxicity against mouse B16-F10 cells assessed as cell viability measured irradiated with 100 mW/cm^2, 660 nm light for 15 mins and measured after 48 hrs incubation by MTT assay
Assay type: functional, cell-based
Conditions: B16-F10, light or radiation study
QUANTITY_KIND: IC50 (nM)

[[record]]
compound_structure_string = "CN(C)c1ccc2c(c1)Sc1cc(N(C)C)ccc1N2C(=O)Nc1ccc(N(CCCl)CCCl)cc1"
readout_number = 1350

